- system: Multidrug and toxin extrusion protein 2 (Homo sapiens)
- Sequence (Q86VL8 whole entry): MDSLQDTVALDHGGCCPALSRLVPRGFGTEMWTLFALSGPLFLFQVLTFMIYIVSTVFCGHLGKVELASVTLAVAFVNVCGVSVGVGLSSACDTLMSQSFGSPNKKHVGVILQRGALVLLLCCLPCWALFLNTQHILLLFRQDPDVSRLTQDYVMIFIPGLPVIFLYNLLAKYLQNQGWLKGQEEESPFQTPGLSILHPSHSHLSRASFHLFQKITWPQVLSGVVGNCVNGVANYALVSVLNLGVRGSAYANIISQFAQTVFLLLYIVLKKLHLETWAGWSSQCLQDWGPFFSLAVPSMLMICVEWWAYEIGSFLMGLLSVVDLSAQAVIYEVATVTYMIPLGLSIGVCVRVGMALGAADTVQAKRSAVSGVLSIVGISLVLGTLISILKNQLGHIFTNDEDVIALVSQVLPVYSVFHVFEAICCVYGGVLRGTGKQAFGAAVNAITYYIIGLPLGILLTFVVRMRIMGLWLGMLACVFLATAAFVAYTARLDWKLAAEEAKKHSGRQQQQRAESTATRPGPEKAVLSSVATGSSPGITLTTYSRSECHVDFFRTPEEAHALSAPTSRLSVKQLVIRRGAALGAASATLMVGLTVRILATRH
- protocol_text: Inhibition of human MATE2K-mediated ASP+ uptake expressed in HEK293 cells after 1.5 mins by fluorescence assay
- Type: cell-based
Record form. Attribute: IC50. Fill in for each entry.
Numbers only, in µM.

# annotated cases, reported IC50 shown
| entry_smiles | readout_units | measurement |
| --- | --- | --- |
| O=c1[nH]c2ccccc2n1CCCN1CCC(n2c(=O)[nH]c3cc(Cl)ccc32)CC1 | µM | 14.8 |
| CN(C)C(=O)COC(=O)Cc1ccc(OC(=O)c2ccc(NC(=N)N)cc2)cc1 | µM | 12.7 |
| O=C1CC2(CCCC2)CC(=O)N1CCCCN1CCN(c2ncccn2)CC1 | µM | 46 |

Okay, now this compound:
Q: Find the recorded IC50 belonging to `Oc1c(Cl)cc(Cl)cc1Sc1cc(Cl)cc(Cl)c1O` and report it.
Ans: 6.6

----------
- system: Multidrug and toxin extrusion protein 1 (Homo sapiens, UniProt Q96FL8)
- Sequence (Q96FL8 whole entry): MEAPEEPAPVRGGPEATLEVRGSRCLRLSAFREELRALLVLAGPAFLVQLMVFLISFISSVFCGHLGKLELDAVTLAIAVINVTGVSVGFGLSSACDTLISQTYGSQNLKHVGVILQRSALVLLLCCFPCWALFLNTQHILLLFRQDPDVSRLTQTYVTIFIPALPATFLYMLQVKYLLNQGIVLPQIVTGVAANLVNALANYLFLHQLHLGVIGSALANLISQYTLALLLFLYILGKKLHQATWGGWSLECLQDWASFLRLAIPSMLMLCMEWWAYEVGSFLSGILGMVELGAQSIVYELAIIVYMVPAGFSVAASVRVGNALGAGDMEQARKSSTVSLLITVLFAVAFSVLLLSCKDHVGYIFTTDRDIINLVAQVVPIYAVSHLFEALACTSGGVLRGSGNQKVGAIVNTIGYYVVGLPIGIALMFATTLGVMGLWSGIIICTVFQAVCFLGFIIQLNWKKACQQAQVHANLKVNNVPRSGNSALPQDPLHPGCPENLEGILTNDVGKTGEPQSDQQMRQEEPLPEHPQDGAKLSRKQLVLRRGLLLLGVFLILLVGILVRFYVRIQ
- protocol_text: Inhibition of human MATE1-mediated ASP+ uptake expressed in HEK293 cells at 20 uM after 1.5 mins by fluorescence assay
- Type: cell-based
- reported_conditions: hek293, […], 20 µM
recorded_metric: INH (%)
Give bare numbers, in %.

# annotated cases, reported INH shown
| compound | INH (%) |
| --- | --- |
| C#C[C@]1(O)CC[C@H]2[C@@H]3CCc4cc(O)ccc4[C@H]3CC[C@@]21C [ETHINYL ESTRADIOL] | 60 |
| NC1=NCC2c3ccccc3Cc3ccccc3N12 (stereo unspecified) [EPINASTINE] | 97 |
| CC(N)C12CC3CC(CC(C3)C1)C2 (stereo unspecified) [RIMANTADINE] | 74 |

Batch lookup, INH per entry.
1. CC(=O)O[C@H]1C[C@@H]2CC[C@@H]3[C@H](CC[C@@]4(C)[C@H]3C[C@H]([N+]3(C)CCCCC3)[C@@H]4OC(C)=O)[C@@]2(C)C[C@@H]1N1CCCCC1.[Br-] [VECURONIUM BROMIDE]
2. Oc1c(Cl)cc(Cl)cc1Sc1cc(Cl)cc(Cl)c1O [BITHIONOL]
3. COc1cc(C(=O)NS(=O)(=O)c2ccccc2C)ccc1Cc1cn(C)c2ccc(NC(=O)OC3CCCC3)cc12 [ZAFIRLUKAST]

Ans:
1: 85; 2: 87; 3: 52

----------
- protocol_text: Cmax in iv dosed human
- Type: ADME, organism-based
- Design: route intravenous
- reported_conditions: in vivo
recorded_metric: Cmax

Q: Find the recorded Cmax belonging to Cn1c(NCCN(CCO)CCCc2ccc([N+](=O)[O-])cc2)cc(=O)n(C)c1=O [NIFEKALANT] and report it.
Ans: 3.43 µM

----------
Record form. Attribute: IC50. Fill in for each entry.
- system: Solute carrier family 22 member 1 (Homo sapiens)
- Sequence (O15245 whole entry): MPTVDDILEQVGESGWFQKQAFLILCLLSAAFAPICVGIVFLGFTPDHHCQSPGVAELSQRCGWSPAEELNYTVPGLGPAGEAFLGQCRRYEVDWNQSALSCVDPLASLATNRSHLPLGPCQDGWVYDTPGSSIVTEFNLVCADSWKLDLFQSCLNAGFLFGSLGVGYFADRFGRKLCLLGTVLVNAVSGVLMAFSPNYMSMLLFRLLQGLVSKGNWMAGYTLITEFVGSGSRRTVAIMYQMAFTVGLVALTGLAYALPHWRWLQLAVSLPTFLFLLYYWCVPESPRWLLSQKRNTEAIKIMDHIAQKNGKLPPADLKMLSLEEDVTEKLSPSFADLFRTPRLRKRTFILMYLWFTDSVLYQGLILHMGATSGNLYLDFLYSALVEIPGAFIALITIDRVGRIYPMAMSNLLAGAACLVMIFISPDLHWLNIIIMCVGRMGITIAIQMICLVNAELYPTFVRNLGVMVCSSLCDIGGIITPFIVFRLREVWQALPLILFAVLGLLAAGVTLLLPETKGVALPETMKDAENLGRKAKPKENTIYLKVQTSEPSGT
- protocol_text: Inhibition of human OCT1-mediated ASP+ uptake expressed in HEK293 cells after 3 mins by fluorescence assay

# annotated cases, reported IC50 shown
| compound | IC50 |
| --- | --- |
| Cn1c(NCCN(CCO)CCCc2ccc([N+](=O)[O-])cc2)cc(=O)n(C)c1=O [NIFEKALANT] | > 300 µM |
| COc1ccnc(C[S+]([O-])c2nc3ccc(OC(F)F)cc3[nH]2)c1OC (centres undefined) [PANTOPRAZOLE] | > 500 µM |

Batch lookup, IC50 per entry.
1. Cc1nccn1CC1CCc2c(c3ccccc3n2C)C1=O (centres undefined) [ONDANSETRON]
2. NC(N)=Nc1nc(CSCCC(N)=NS(N)(=O)=O)cs1 [FAMOTIDINE]

Ans:
1: > 300 µM; 2: > 300 µM
